# experiment_notes: pI of native glucagon and glucagon derivatives
# Assay type: physicochemical
# Method: Accordingly, as described in Table 1 below, a native glucagon and glucagon derivatives having equivalent activity thereto were first prepared. Referring to WO 2016/108586, WO 2017/003191, and WO 2018/004283, the glucagon derivatives were synthesized, and pl and in vitro activity thereof were measured.
Bridge positions count the residues as written; N and C are the ends. Square brackets hold non-standard residues; d marks the D form. Ends that are not written are not given here. Aib = CC(C)(N)C(=O)O
pl vs 5: less than gives yes; not less than gives no.

Consider the worked cases shown below.
{"primary_sequence": "HSQGTFTSDYSKYLDCERAQDFVQWLMNT (glucagon derivative) [SEQ ID NO: 3]", "cat": "yes"}
{"primary_sequence": "HSQGTFTSDYSKYLDSCDAQDFVQWLMNT (glucagon derivative) [SEQ ID NO: 4]", "cat": "yes"}
{"primary_sequence": "YXQGTFTSDYSKYLDCKRAKEFVQWLMNT [SEQ ID NO: 14] (Y[Aib]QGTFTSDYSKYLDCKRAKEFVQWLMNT)", "cat": "no"}
{"primary_sequence": "WXQGTFTSDYSKYCDERRAKEFVQWLMNT (W[Aib]QGTFTSDYSKYCDERRAKEFVQWLMNT; lactam 16-20) [SEQ ID NO: 34]", "cat": "no"}
{"primary_sequence": "YXQGTFTSDYSKYLDSCDAQDFVVWLINT (Y[Aib]QGTFTSDYSKYLDSCDAQDFVVWLINT) [SEQ ID NO: 9]", "cat": "yes"}
{"primary_sequence": "YXQGTFTSDYSKCLDERRAKDFVQWLMNT (Y[Aib]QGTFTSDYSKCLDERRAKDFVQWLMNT; lactam 16-20) [SEQ ID NO: 29]", "cat": "no"}

Now take the following sequence into account.
Request: Could you please tell me whether pl recorded for YXQGTFTSDYSKYLDCRRAQVFVQWLMRT (Y[Aib]QGTFTSDYSKYLDCRRAQVFVQWLMRT) [SEQ ID NO: 16] is less than 5?
Response: no

###

# experiment_notes: pI of native glucagon and glucagon derivatives
# Assay type: physicochemical
Bridge positions count the residues as written; N and C are the ends. Square brackets hold non-standard residues; d marks the D form. Ends that are not written are not given here. Aib = CC(C)(N)C(=O)O
The following sequences are listed with their measured pl values.

Request: Returns the measured pl for the input sequence. Input: YXQGTFTSDYSKCLDEKRAKEFVQWLMNT (Y[Aib]QGTFTSDYSKCLDEKRAKEFVQWLMNT; lactam 16-20) [SEQ ID NO: 24]
Response: 6.21

Request: Returns the measured pl for the input sequence. Input: YXQGTFCSDYSKYLDERRAKDFVQWLMNT (Y[Aib]QGTFCSDYSKYLDERRAKDFVQWLMNT; lactam 16-20) [SEQ ID NO: 41]
Response: 6.03

Request: Returns the measured pl for the input sequence. Input: YXQGTFTSDYSKYCDERRAKEFVQWLMNT (Y[Aib]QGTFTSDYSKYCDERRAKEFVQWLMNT; lactam 16-20) [SEQ ID NO: 35]
Response: 6.2

Request: Returns the measured pl for the input sequence. Input: SQGTFTSDYSKYLDECRAKEFVQWLMNT (lactam 15-19) [SEQ ID NO: 32]
Response: 4.78

Request: Returns the measured pl for the input sequence. Input: HSQGTFTSDYSKYLDSCEADDFVQWLMNT (glucagon derivative) [SEQ ID NO: 6]
Response: 4.03

Request: Returns the measured pl for the input sequence. Input: YXQGTFCSDYSKYLDSRRAQDFVQWLMNT (Y[Aib]QGTFCSDYSKYLDSRRAQDFVQWLMNT) [SEQ ID NO: 42]
Response: 6.03

Request: Returns the measured pl for the input sequence. Input: YXQGTFVSDYSKYLDECRAKDFVQWLMNT (Y[Aib]QGTFVSDYSKYLDECRAKDFVQWLMNT; lactam 16-20) [SEQ ID NO: 27]
Response: 4.68

Request: Returns the measured pl for the input sequence. Input: YXQGTFTSDYSKYCDEKRAKEFVQWLMNT (Y[Aib]QGTFTSDYSKYCDEKRAKEFVQWLMNT; lactam 16-20) [SEQ ID NO: 23]
Response: 6.20

Request: Returns the measured pl for the input sequence. Input: YXQGTFTSDCSKYLDERRAKEFVQWLMNT (Y[Aib]QGTFTSDCSKYLDERRAKEFVQWLMNT; lactam 16-20) [SEQ ID NO: 36]
Response: 6.21

Request: Returns the measured pl for the input sequence. Input: WXQGTFVSDYSKYLDECRAKDFVQWLMNT (W[Aib]QGTFVSDYSKYLDECRAKDFVQWLMNT; lactam 16-20) [SEQ ID NO: 28]
Response: 4.68

Request: Returns the measured pl for the input sequence. Input: YXQGTFTSDYSKYLDSCDADDFVVWLINT (Y[Aib]QGTFTSDYSKYLDSCDADDFVVWLINT) [SEQ ID NO: 10]
Response: 3.66

Request: Returns the measured pl for the input sequence. Input: YXQGTFTSDYSKYLDSRRACDFRLWLMNT (Y[Aib]QGTFTSDYSKYLDSRRACDFRLWLMNT) [SEQ ID NO: 18]
Response: 8.15
